Origin of the recorded values: the supplement of paper PMC7125110

B1: glmS ribozyme (parent)
chain: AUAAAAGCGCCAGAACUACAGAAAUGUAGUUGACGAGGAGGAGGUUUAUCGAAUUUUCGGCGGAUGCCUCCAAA

- Variants of: B1
- procedure text: self-cleavage kobs at 640 uM GlcN6P; higher = faster cleavage; RNA array
- assay context: with glucosamine-6-phosphate
Variants at the floor of the assay were thinned out.
Would you mind telling me the reported self-cleavage kobs at 640 uM GlcN6P of each entry?

Qu. What measured self-cleavage kobs at 640 uM GlcN6P goes with A12C G35U ?
Ans. < 1e-05 s⁻¹

Qu. What measured self-cleavage kobs at 640 uM GlcN6P goes with A6U G37U A48C C67G ?
Ans. < 1e-05 s⁻¹

Qu. What measured self-cleavage kobs at 640 uM GlcN6P goes with C11U A12C U31G G32U U57G ?
Ans. < 1e-05 s⁻¹

Qu. What measured self-cleavage kobs at 640 uM GlcN6P goes with G38U G43U U57C C70U ?
Ans. < 1e-05 s⁻¹

Qu. What measured self-cleavage kobs at 640 uM GlcN6P goes with G7U A12C G29C ?
Ans. < 1e-05 s⁻¹

Qu. What measured self-cleavage kobs at 640 uM GlcN6P goes with G7A C67G ?
Ans. < 1e-05 s⁻¹

Qu. What measured self-cleavage kobs at 640 uM GlcN6P goes with C58A G62C ?
Ans. < 1e-05 s⁻¹

Qu. What measured self-cleavage kobs at 640 uM GlcN6P goes with C8G G32C A33U C67U ?
Ans. < 1e-05 s⁻¹

Qu. What measured self-cleavage kobs at 640 uM GlcN6P goes with C10G G37A ?
Ans. < 1e-05 s⁻¹

Qu. What measured self-cleavage kobs at 640 uM GlcN6P goes with C11G G43C U45C ?
Ans. < 1e-05 s⁻¹

Qu. What measured self-cleavage kobs at 640 uM GlcN6P goes with A14U G41U G44U ?
Ans. < 1e-05 s⁻¹
